Value source: paper PMC4055595

Reported Cl_F_obs values for a set of compounds
# procedure-summary: Rat plasma pharmacokinetics after 10-day vehicle/SLE and digoxin or GE
# Assay type: in vivo, Sprague-Dawley rats
# test-parameters: rats, SLE 500 mg/kg ig once a day for 10 days, day 11 digoxin 0.5 mg/kg or GE 120 mg/kg ig
The reply should be a number in L/h, with the unit left off.

(Q) Any idea what its Cl_F_obs is? The compound is CC(C)=CCC[C@](C)(O[C@@H]1O[C@H](CO[C@@H]2OC[C@H](O)[C@H](O)[C@H]2O)[C@@H](O)[C@H](O)[C@H]1O)[C@H]1CC[C@]2(C)[C@@H]1[C@H](O)C[C@@H]1[C@@]3(C)CC[C@H](O[C@@H]4O[C@H](CO)[C@@H](O)[C@H](O)[C@H]4O[C@@H]4O[C@H](CO)[C@@H](O)[C@H](O)[C@H]4O)C(C)(C)[C@@H]3CC[C@]12C [Rb2, ginsenoside Rb2]
(A) 0.0047

(Q) Any idea what its Cl_F_obs is? The compound is C[C@H]1O[C@@H](O[C@H]2[C@@H](O)C[C@H](O[C@H]3[C@@H](O)C[C@H](O[C@H]4CC[C@@]5(C)[C@H](CC[C@@H]6[C@@H]5C[C@@H](O)[C@]5(C)[C@@H](C7=CC(=O)OC7)CC[C@]65O)C4)O[C@@H]3C)O[C@@H]2C)C[C@H](O)[C@@H]1O [Digoxin, digoxin, reference compound]
(A) 4.49

More entries:
(Q) Any idea what its Cl_F_obs is? The compound is CC(C)=CCC[C@](C)(O[C@@H]1O[C@H](CO[C@@H]2O[C@H](CO)[C@@H](O)[C@H](O)[C@H]2O)[C@@H](O)[C@H](O)[C@H]1O)[C@H]1CC[C@]2(C)[C@@H]1[C@H](O)C[C@@H]1[C@@]3(C)CC[C@H](O[C@@H]4O[C@H](CO)[C@@H](O)[C@H](O)[C@H]4O[C@@H]4O[C@H](CO)[C@@H](O)[C@H](O)[C@H]4O)C(C)(C)[C@@H]3CC[C@]12C [Rb1, ginsenoside Rb1]
(A) 0.0037

(Q) Any idea what its Cl_F_obs is? The compound is CC(C)=CCC[C@](C)(O[C@@H]1O[C@H](CO)[C@@H](O)[C@H](O)[C@H]1O)[C@H]1CC[C@]2(C)[C@@H]1[C@H](O)C[C@@H]1[C@@]3(C)CC[C@H](O[C@@H]4O[C@H](CO)[C@@H](O)[C@H](O)[C@H]4O[C@@H]4O[C@H](CO)[C@@H](O)[C@H](O)[C@H]4O)C(C)(C)[C@@H]3CC[C@]12C [Rd, ginsenoside Rd]
(A) 0.0125
